compounds and their reported SI
# EXPERIMENT_NOTES: Selectivity index determined for CC50 (test I) to EC50 x 10e3
# Type: functional

The measured SI associated with "NCCCC[C@H]1NC(=O)[C@H](CCCN=C(N)N)NC(=O)[C@@H](Cc2ccc(O)cc2)NC(=O)[C@H](NC(=O)[C@@H](NC(=O)[C@H](CCCN=C(N)N)NC(=O)[C@@H](N)CCCN=C(N)N)c2ccc3ccccc3c2)CSSC[C@H](C(=O)N[C@@H](CCCN=C(N)N)C(=O)O)NC(=O)[C@H](CCCNC(N)=O)NC(=O)[C@H](CCCNC(N)=O)NC(=O)[C@H](Cc2ccc(O)cc2)NC(=O)[C@H]2CCCN2C(=O)[C@H](CCCNC(N)=O)NC1=O" reads > 13

More entries:
The measured SI associated with "NCCCC[C@H]1NC(=O)[C@H](CCCN=C(N)N)NC(=O)[C@@H](Cc2ccc(O)cc2)NC(=O)[C@H](NC(=O)[C@@H](NC(=O)[C@H](CCCN=C(N)N)NC(=O)[C@@H](N)CCCN=C(N)N)c2ccc3ccccc3c2)CSSC[C@H](C(=O)N[C@@H](CCCN=C(N)N)C(N)=O)NC(=O)[C@H](CCCNC(N)=O)NC(=O)[C@H](CCCN=C(N)N)NC(=O)[C@H](Cc2ccc(O)cc2)NC(=O)[C@H]2CCCN2C(=O)[C@H](CCCNC(N)=O)NC1=O" reads > 22
